test: Therapeutic index, ratio of CC50 for human […] cells to EC50 for HIV1-3B; format: cell-based; conditions: read-out: Ratio CC50/EC50
Please respond with reported selectivity ratio for every item in the list.

Parameter requested: selectivity ratio. Apply to each item below.
1. C=C(CC/C=C(/C)C(=O)O)C1=CC[C@@]2(C)[C@@H]3[C@H]4C[C@H](C(=C)C)[C@@]5(CCC(=O)O4)C[C@@]35CC[C@]12C
2. COc1cc2c(c(OC)c1OC)-c1c(cc(OC)c(OC)c1OC)C[C@](C)(O)[C@@H](C)C2
3. COc1c2c(cc3c1-c1c(cc4c(c1OC)OCO4)[C@H](OC(=O)c1ccccc1)[C@@](C)(O)[C@@H](C)C3)OCO2

["> 32.8", "> 12.7", "> 9.76"]
